assay_target: Transient receptor potential cation channel subfamily V member 1 (Homo sapiens, UniProt Q8NER1)
Sequence (Q8NER1 whole entry): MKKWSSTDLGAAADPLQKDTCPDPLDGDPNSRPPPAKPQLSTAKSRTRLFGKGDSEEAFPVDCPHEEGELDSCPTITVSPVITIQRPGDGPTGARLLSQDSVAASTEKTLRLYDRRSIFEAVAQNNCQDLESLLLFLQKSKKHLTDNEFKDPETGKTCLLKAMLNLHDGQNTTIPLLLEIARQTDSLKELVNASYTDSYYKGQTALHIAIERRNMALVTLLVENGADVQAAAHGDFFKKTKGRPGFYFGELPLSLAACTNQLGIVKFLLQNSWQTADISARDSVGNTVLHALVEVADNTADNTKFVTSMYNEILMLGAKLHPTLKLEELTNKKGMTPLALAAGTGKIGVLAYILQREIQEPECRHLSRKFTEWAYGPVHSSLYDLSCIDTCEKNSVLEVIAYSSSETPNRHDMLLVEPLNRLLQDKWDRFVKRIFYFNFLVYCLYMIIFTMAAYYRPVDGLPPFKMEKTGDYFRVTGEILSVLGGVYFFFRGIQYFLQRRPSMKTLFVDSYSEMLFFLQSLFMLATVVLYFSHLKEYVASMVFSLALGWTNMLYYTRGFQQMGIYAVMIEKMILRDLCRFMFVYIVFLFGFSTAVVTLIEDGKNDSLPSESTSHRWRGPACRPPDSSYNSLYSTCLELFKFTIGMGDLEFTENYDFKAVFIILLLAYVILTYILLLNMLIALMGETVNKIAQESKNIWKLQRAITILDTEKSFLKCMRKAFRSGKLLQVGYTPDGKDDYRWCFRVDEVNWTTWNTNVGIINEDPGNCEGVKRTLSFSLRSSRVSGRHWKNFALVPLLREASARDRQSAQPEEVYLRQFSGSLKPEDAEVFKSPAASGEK
method_description: Agonist activity at human TRPV1 expressed in HEK293 cells assessed as increase in intracellular Ca2+ concentration by Fluo-4-AM dye based spectrofluorimetry relative to ionomycin
Format: cell-based
In this section, each of the compounds is paired with its reported Efficacy.

- compound: "CC(C)=CCCC(C)CCOC(=O)CCc1ccccc1 (stereo not drawn)"
  Efficacy: "< 10%"
- compound: "CC(C)=CCC/C(C)=C\\COC(=O)Cc1ccc(Cl)cc1"
  Efficacy: "< 10%"
- compound: "COc1ccc(CC(=O)OC/C=C(/C)CCC=C(C)C)cc1"
  Efficacy: "< 10%"
- compound: "CC(C)=CCC/C(C)=C/COC(=O)Cc1ccc(C)cc1"
  Efficacy: "< 10%"
- compound: "CC(C)=CCC/C(C)=C/COC(=O)CCc1ccccc1"
  Efficacy: "27.7%"
- compound: "CC(C)=CCC/C(C)=C\\CNC(=O)Nc1cccc(Cl)c1"
  Efficacy: "20.1%"
- compound: "CC(C)=CCC/C(C)=C/CNC(=O)Nc1ccc(C(C)(C)C)cc1"
  Efficacy: "21.9%"
- compound: "CC(C)=CCC/C(C)=C/COC(=O)c1ccc(C#N)cc1"
  Efficacy: "< 10%"
- compound: "CC(C)=CCC/C(C)=C/CNC(=O)Nc1cccc(Cl)c1"
  Efficacy: "21.2%"
- compound: "COc1ccc(CC(=O)OC/C=C(\\C)CCC=C(C)C)cc1"
  Efficacy: "13.2%"
- compound: "CC(C)=CCC/C(C)=C\\COC(=O)Nc1ccc(C(C)(C)C)cc1"
  Efficacy: "24%"
- compound: "CC(C)=CCCC(C)CCO (racemic)"
  Efficacy: "< 10%"
- compound: "CC(C)=CCC/C(C)=C/COC(=O)c1cccc(C)c1"
  Efficacy: "< 10%"
- compound: "CC(C)=CCC/C(C)=C\\CO"
  Efficacy: "< 10%"
- compound: "CC(C)=CCC/C(C)=C\\COC(=O)Cc1cccc(I)c1"
  Efficacy: "< 10%"
- compound: "CC(C)=CCC/C(C)=C/CNC(=O)CCc1ccccc1"
  Efficacy: "10.5%"
- compound: "CC(C)=CCC/C(C)=C\\CNC(=O)Cc1ccc(Cl)cc1"
  Efficacy: "57.9%"
- compound: "CC(C)=CCC/C(C)=C\\COC(=O)c1ccc(C)cc1"
  Efficacy: "< 10%"
- compound: "CC(C)=CCC/C(C)=C/COC(=O)Cc1ccc(Cl)cc1"
  Efficacy: "< 10%"
- compound: "CC(C)=CCC/C(C)=C/CO"
  Efficacy: "< 10%"
- compound: "CC(C)=CCC/C(C)=C\\COC(=O)Cc1ccc2ccccc2c1"
  Efficacy: "< 10%"
- compound: "CC(C)=CCC/C(C)=C/CNC(=O)Cc1ccc(Cl)cc1"
  Efficacy: "57.5%"
- compound: "CC(C)=CCCC(C)CCOC(=O)c1ccc(C)cc1 (stereo not drawn)"
  Efficacy: "< 10%"
- compound: "CC(C)=CCC/C(C)=C\\COC(=O)Cc1ccc(C)cc1"
  Efficacy: "< 10%"
- compound: "CC(C)=CCC/C(C)=C\\COC(=O)c1cccc(C)c1"
  Efficacy: "< 10%"
- compound: "CC(=O)OC/C=C(/C)CCC=C(C)C [NERYL ACETATE]"
  Efficacy: "< 10%"
- compound: "CC(C)=CCCC(C)CCOC(=O)Cc1ccc(Cl)cc1 (stereo not drawn)"
  Efficacy: "< 10%"
- compound: "CC(C)=CCC/C(C)=C/COC(=O)c1ccc(C)cc1"
  Efficacy: "17.6%"
